Provenance of the data: PubChem BioAssay (NCI)

Tested on: LOX IMVI melanoma
ASSAY_OVERVIEW: NCI tumour cell line growth inhibition, 48 h; in the data active means GI50 below about 0.43 µM; inactive means the rest
Outcome field: choose from TRUE (active), FALSE (inactive)

Ask: What classification did `C[C@@H]1C/C=C\C(=O)O[C@H](/C=C/C#C/C=C/C(C)(C)[C@@H](O)c2cccc(O)c2Br)[C@@H](C)/C=C/[C@H](C)C[C@H](OC(N)=O)C1` end up with in this test?
Reply: TRUE

Ask: What classification did `CN(C)C/C=C/C(=O)Nc1ccc(C(=O)N2CCC[C@@H](Nc3ncc(Cl)c(-c4c[nH]c5ccccc45)n3)C2)cc1` end up with in this test?
Reply: TRUE

Ask: What classification did `Cc1ccc(/C=C2\CNC/C(=C\c3ccc(C)cc3)C2=O)cc1` end up with in this test?
Reply: TRUE

Ask: What classification did c1ccc(CC(NCCNC(Cc2ccccc2)c2ccccc2)c2ccccc2)cc1 (stereo not given) end up with in this test?
Reply: TRUE

Ask: What classification did `CC[C@@]1(O)C(=O)OCc2c1cc1n(c2=O)Cc2cc3c(N)cccc3nc2-1` end up with in this test?
Reply: TRUE

Ask: What classification did `COc1ccc(NC(=O)c2sc3nc4c(cc3c2N)CCCC4)cc1` end up with in this test?
Reply: FALSE

Ask: What classification did `C1=C2CNCC3=Cc4ccc5ccccc5c4OC23Oc2c1ccc1ccccc21` end up with in this test?
Reply: FALSE

Ask: What classification did `COc1ccc(-c2cc(/C=C/C(=O)c3cc(OC)c(OC)c(OC)c3)[nH]n2)cc1OC` end up with in this test?
Reply: FALSE

Ask: What classification did `Cn1cnc([N+](=O)[O-])c1Sc1nc(N)nc2nc[nH]c12` end up with in this test?
Reply: FALSE

Ask: What classification did `NC(N)=N/N=C/c1c(-c2ccc(Cl)c([N+](=O)[O-])c2)nc2n1CCS2` end up with in this test?
Reply: FALSE
